tested on: RXF 393; experiment: Cytotoxicity against human RXF393 cells assessed as growth inhibition at 10 uM after 24 hrs by SRB assay; format: functional; details: RXF 393, 24 h, read-out: GI
Grouping key: inhibition of growth at 10 µM. Bins: bottom bin: < 30%; middle bin: ≥ 30% and < 60%; top bin: ≥ 60%

compound_structure=COc1nc(OC)nc(-c2cc(C(=O)c3cc(OC)c(OC)c(OC)c3)n3ccc(C)cc23)n1 discrete_label="middle bin"
compound_structure=COc1nc(OC)nc(-c2cc(C(=O)c3cc(OC)c(OC)c(OC)c3)n3c(C)cccc23)n1 discrete_label="middle bin"
compound_structure=COc1ccc(C(=O)c2cc(-c3nc(OC)nc(OC)n3)c3cc(C#N)ccn23)cc1 discrete_label="bottom bin"
compound_structure=COc1nc(OC)nc(-c2cc(C(=O)c3ccc(C)cc3)n3ccc(C#N)cc23)n1 discrete_label="middle bin"
compound_structure=COc1nc(OC)nc(-c2cc(C(=O)c3ccc(Cl)cc3)n3ccccc23)n1 discrete_label="middle bin"
compound_structure=COc1nc(OC)nc(-c2cc(C(=O)c3ccc(Br)cc3)n3ccc(C#N)cc23)n1 discrete_label="bottom bin"
compound_structure=COc1nc(OC)nc(-c2cc(C(=O)c3ccc(Br)cc3)n3c(C)cccc23)n1 discrete_label="middle bin"
compound_structure=COc1nc(OC)nc(-c2cc(C(=O)c3ccc(Br)cc3)n3ccc4ccccc4c23)n1 discrete_label="top bin"
compound_structure=COc1nc(OC)nc(-c2cc(C(=O)c3ccc(Br)cc3)n3ccccc23)n1 discrete_label="top bin"
compound_structure=COc1nc(OC)nc(-c2cc(C(=O)c3cc(OC)c(OC)c(OC)c3)n3c(-c4ccccc4)cccc23)n1 discrete_label="bottom bin"

###

system: ACHN; assay: Cytotoxicity against human ACHN cells assessed as growth inhibition at 10 uM after 24 hrs by SRB assay; format: functional; conditions: read-out: GI
Endpoint Name: inhibition of growth at 10 µM (%)

compound_structure=COc1nc(OC)nc(-c2cc(C(=O)c3cc(OC)c(OC)c(OC)c3)n3c(C)cccc23)n1 assay_value=30
compound_structure=COc1nc(OC)nc(-c2cc(C(=O)c3cc(OC)c(OC)c(OC)c3)n3c(-c4ccccc4)cccc23)n1 assay_value=30
compound_structure=COc1nc(OC)nc(-c2cc(C(=O)c3ccc(Br)cc3)n3c(C)cccc23)n1 assay_value=30
